We begin with a simple list: items and their reported normalized growth.
# test method notes: chemical genetic growth profiling, strain panel (AID 1159580);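 note: tested at 20 µM; growth read once vehicle control cultures reached saturation at 30 °C; 1 = growth at the plate median or of vehicle wells; lower values mean less growth of the strain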
# condition set: S. cerevisiae deletion strains, growth OD, locus YLR384C, strain iki3, hits give low values
Among all 5,500 compounds or so, about 2,000 (36%) were called active. Roughly 18% stayed inconclusive and do not appear here. The list shows a part of the results.
// return a plain number; no unit text

Exam item: Please supply the value of reported normalized growth for the item NS(=O)(=O)c1cc(C2(O)NC(=O)c3ccccc32)ccc1Cl (centres undefined)
Marked response: 0.987

Exam item: State its normalized growth for this compound: CC[n+]1c(-c2ccccc2)c2cc(N)ccc2c2ccc(N)cc21
Marked response: 0.966

Exam item: Give the value of normalized growth reported for the following: O=c1c(O)c(-c2ccc(O)cc2O)oc2cc(O)cc(O)c12
Marked response: 1

Exam item: Please report the measured normalized growth for COc1ccc(-c2cc(=O)c3c(O)cc(O[C@@H]4O[C@H](CO[C@H]5O[C@H](C)[C@@H](O)[C@H](O)[C@@H]5O)[C@@H](O)[C@H](O)[C@H]4O)cc3o2)cc1O
Marked response: 1.03

====

# test method notes: chemical genetic growth profiling, strain panel (AID 1159580);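 note: tested at 20 µM; growth read once vehicle control cultures reached saturation at 30 °C; 1 = growth at the plate median or of vehicle wells; lower values mean less growth of the strain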
# condition set: S. cerevisiae deletion strains, growth OD, locus YDR502C, strain sam2, hits give low values
In all, about 5,500 compounds went through this assay and about 2,000 (36%) were called active. About 18% were inconclusive and are not listed. The list shows a part of the results.
# normalized growth per entry
Reply: number alone, nothing else.

CCC(c1ccc(O)cc1)C(CC)c1ccc(O)cc1 (configuration not stated); 0.959
COc1ccc2ccc(=O)oc2c1; 1.02
CC1O[C@@H](Oc2c(-c3ccc(O)c(O)c3)oc3cc(O)cc(O)c3c2=O)[C@H](O)[C@H](O)[C@H]1O (some centres not stated); 1.01

Exam item: Dear colleague, please send me the reported normalized growth for COc1ccc(-c2cc(=O)c3c(O)cc(O[C@@H]4O[C@H](CO[C@H]5O[C@H](C)[C@@H](O)[C@H](O)[C@@H]5O)[C@@H](O)[C@H](O)[C@H]4O)cc3o2)cc1O when you can.
Marked response: 0.993

Exam item: Look up normalized growth of CCCCCCCCCCCC1=C(O)C(=O)C=C(O)C1=O and report it.
Marked response: 0.886

Exam item: Hello, please tell me recorded normalized growth for this one: CCC(N)C(O)c1ccc(O)c(O)c1 (configuration not stated)
Marked response: 0.998

Exam item: // Input: CC/C(=C(/CC)c1ccc(O)cc1)c1ccc(O)cc1 . Output its normalized growth only.
Marked response: 0.955

====

# test method notes: chemical genetic growth profiling, strain panel (AID 1159580);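 note: tested at 20 µM; growth read once vehicle control cultures reached saturation at 30 °C; 1 = growth at the plate median or of vehicle wells; lower values mean less growth of the strain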
# condition set: S. cerevisiae deletion strains, growth OD, locus YNL298W, strain CLA4, hits give low values
The whole screen tested about 5,500 compounds, of which about 2,000 (36%) were called active. Another 18% or so got no clear call; they are omitted. Some of the results follow.
parameter: normalized growth
API note: the answer field is a bare number with no unit suffix.

Known normalized growth results, listed for orientation:
COC(=O)c1c(C)cc(OC)cc1O; 0.996
O=c1c(O)c(-c2ccc(O)c(O)c2)oc2cc(O)cc(O)c12; 1.01
COC(=O)C1OC(=O)C2OC23C1(C)CCC1C2(C)C(OC(C)=O)CC(OC(C)=O)C(C)(C)C2CC(=O)C13C (centres undefined); 0.985
O=C(O[C@@H]1Cc2c(O)cc(O)cc2O[C@@H]1c1cc(O)c(=O)c2c(O)c(O)cc([C@H]3Oc4cc(O)cc(O)c4C[C@H]3O)c2c1)c1cc(O)c(O)c(O)c1; 0.998
CC12CCC3c4ccc(OC(=O)c5ccccc5)cc4CCC3C1CCC2O (centres undefined); 0.993

Exam item: Given the compound O=C(OC1Cc2c(O)cc(O)cc2OC1c1cc(=O)c(O)c2c(O)c(O)cc(C3Oc4cc(O)cc(O)c4CC3O)c2c1)c1cc(O)c(O)c(O)c1 (centres undefined) , write its reported normalized growth.
Marked response: 1

Exam item: Please give measured normalized growth of the following entry: CCc1cc(C(N)=S)ccn1
Marked response: 0.978

Exam item: Return value of normalized growth for input CC(C1OC(C)(C)C(O)C1O)[C@@H]1CC[C@]2(C)C3=CCC4C(C)(C)C(=O)CC[C@]4(C)C3CC[C@@]12C (some centres undefined) , no commentary.
Marked response: 0.973

Exam item: Return the recorded normalized growth value; entry: O=c1c(O)c(-c2ccc(O)cc2O)oc2cc(O)cc(O)c12
Marked response: 1

Exam item: Please give the documented normalized growth of CCCC(C)(COC(N)=O)COC(=O)NC(C)C (centres undefined)
Marked response: 0.972

Exam item: Please list normalized growth recorded for the compound COc1ccc(-c2cc(=O)c3c(O)cc(O[C@@H]4O[C@H](CO[C@H]5O[C@H](C)[C@@H](O)[C@H](O)[C@@H]5O)[C@@H](O)[C@H](O)[C@H]4O)cc3o2)cc1O
Marked response: 0.985

Exam item: Annotate the compound CCC(=O)c1c(O)cc(O)cc1O with its measured normalized growth.
Marked response: 0.973

Exam item: Identify measured normalized growth associated with CN[C@@H]1C(O)[C@@H](O[C@@H]2[C@@H](O)[C@H](O[C@H]3OC(CN)=CC[C@H]3N)[C@@H](N)C[C@H]2N)OC[C@]1(C)O (some centres undefined)
Marked response: 1

Exam item: Answer with the recorded normalized growth of NC(N)=NC(=O)c1nc(Cl)c(N2CCCCCC2)nc1N only.
Marked response: 1

// provenance: PubChem BioAssay AID1159580
